biological target: mut-HVGH DrIleRS2 (Deinococcus radiodurans, UniProt Q9RUP8, A59H/H61G/L60V); construct: hexa-histidine tag (pET28b(+)) (N); made in house; host or cells: E. coli BL21(DE3); experiment: biochemical; details: KI (MUP)Ile, amino acid activation step; ATP/PPi exchange assay; Ile varied, ATP saturating; average ± SD of three independent experiments
Sequence (Q9RUP8 whole entry A59H/L60V/H61G): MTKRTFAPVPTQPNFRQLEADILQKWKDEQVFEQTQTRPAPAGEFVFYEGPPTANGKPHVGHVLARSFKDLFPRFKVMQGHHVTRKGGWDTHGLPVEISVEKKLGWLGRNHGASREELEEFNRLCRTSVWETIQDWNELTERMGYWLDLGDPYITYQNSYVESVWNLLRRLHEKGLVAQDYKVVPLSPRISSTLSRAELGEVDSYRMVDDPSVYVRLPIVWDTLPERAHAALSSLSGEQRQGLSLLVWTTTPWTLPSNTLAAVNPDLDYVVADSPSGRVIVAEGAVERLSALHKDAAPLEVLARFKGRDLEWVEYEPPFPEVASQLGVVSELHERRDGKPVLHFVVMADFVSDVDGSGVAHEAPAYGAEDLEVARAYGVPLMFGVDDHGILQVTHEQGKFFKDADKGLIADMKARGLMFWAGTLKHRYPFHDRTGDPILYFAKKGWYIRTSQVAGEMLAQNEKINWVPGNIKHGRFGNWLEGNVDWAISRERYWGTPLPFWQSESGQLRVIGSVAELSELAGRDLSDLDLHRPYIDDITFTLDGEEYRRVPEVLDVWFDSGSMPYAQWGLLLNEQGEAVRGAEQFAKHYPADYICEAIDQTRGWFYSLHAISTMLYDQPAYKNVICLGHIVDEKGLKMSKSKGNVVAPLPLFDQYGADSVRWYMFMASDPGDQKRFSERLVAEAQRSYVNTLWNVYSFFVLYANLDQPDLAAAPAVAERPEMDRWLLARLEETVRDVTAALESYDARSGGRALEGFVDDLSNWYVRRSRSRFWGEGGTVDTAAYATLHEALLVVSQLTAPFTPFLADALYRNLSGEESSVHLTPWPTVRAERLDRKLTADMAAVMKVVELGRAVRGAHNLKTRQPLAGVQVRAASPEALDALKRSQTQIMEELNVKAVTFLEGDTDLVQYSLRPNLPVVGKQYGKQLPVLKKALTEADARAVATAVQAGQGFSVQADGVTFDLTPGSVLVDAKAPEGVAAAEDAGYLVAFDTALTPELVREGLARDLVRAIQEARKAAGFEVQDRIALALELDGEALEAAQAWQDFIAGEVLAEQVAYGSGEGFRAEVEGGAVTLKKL
pKi: −log10 of the molar value.
measurement label: pKi

C/C(=C\C(=O)OCCCCCCCCC(=O)O)C[C@@H]1OC[C@H](C[C@@H]2O[C@H]2[C@@H](C)[C@H](C)O)[C@@H](O)[C@H]1O :: 5.09
